System: Escherichia coli TOP10
Assay: shrunken log2 fold change of peptide-encoding DNA abundance (4.5 h post-induction vs induction); higher = less antimicrobial activity (less host growth inhibition)
Conditions: time post-induction: 4.5 h; library: site-saturation at positions 5, 18, 19, 20
Response key: Fulfilled means shrunken log2 fold change >= -0.05; Not fulfilled means shrunken log2 fold change < -0.05.

INPUT: Check this sequence for shrunken log2 fold change at or above -0.05: RRIRVRPPRLPRPRPRPDDRPRP
OUTPUT: Not fulfilled

INPUT: Moving on to RRIRHRPPRLPRPRPRPRSCPRP
OUTPUT: Not fulfilled

INPUT: Entry RRIRVRPPRLPRPRPRPAMKPRP please
OUTPUT: Not fulfilled

INPUT: Follow-up item: RRIRSRPPRLPRPRPRPKASPRP
OUTPUT: Fulfilled

INPUT: Could you do the same for RRIRFRPPRLPRPRPRPFWNPRP , please?
OUTPUT: Fulfilled

INPUT: Next sequence up: RRIRERPPRLPRPRPRPMHHPRP
OUTPUT: Not fulfilled

INPUT: What do we get for RRIRCRPPRLPRPRPRPGFDPRP ?
OUTPUT: Fulfilled

INPUT: Same for RRIRFRPPRLPRPRPRPGVWPRP
OUTPUT: Fulfilled

INPUT: Thanks! And RRIRIRPPRLPRPRPRPIQDPRP ?
OUTPUT: Not fulfilled

INPUT: What do we get for RRIRQRPPRLPRPRPRPNDSPRP ?
OUTPUT: Not fulfilled

INPUT: Note, next up: RRIRQRPPRLPRPRPRPFMIPRP
OUTPUT: Fulfilled

INPUT: Next entry: RRIRARPPRLPRPRPRPKFVPRP
OUTPUT: Fulfilled

INPUT: Same question, RRIRHRPPRLPRPRPRPSEAPRP this time
OUTPUT: Not fulfilled

INPUT: // next record RRIRVRPPRLPRPRPRPLVYPRP
OUTPUT: Not fulfilled

INPUT: Try this sequence next: RRIRHRPPRLPRPRPRPNFHPRP
OUTPUT: Not fulfilled

INPUT: Now consider RRIRTRPPRLPRPRPRPIILPRP .
OUTPUT: Not fulfilled

INPUT: Follow-up item: RRIRMRPPRLPRPRPRPVPAPRP
OUTPUT: Fulfilled

INPUT: Then what about the sequence RRIRIRPPRLPRPRPRPTSQPRP ?
OUTPUT: Not fulfilled

INPUT: Would you kindly repeat that for RRIRMRPPRLPRPRPRPHPLPRP ?
OUTPUT: Fulfilled

---

Task for the reader: assign each of the following sequences its reported shrunken log2 fold change.
Tested on: Escherichia coli TOP10;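 note: peptides expressed intracellularly from a pBAD plasmid library in pooled LB shake-flask culture, induced with 0.3% L-arabinose, DNA abundance read by NGS, three biological replicates, DESeq2 with apeglm shrinkage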
Assay: shrunken log2 fold change of peptide-encoding DNA abundance (4.5 h post-induction vs induction); higher = less antimicrobial activity (less host growth inhibition)
Settings: time post-induction: 4.5 h; library: site-saturation at positions 5, 18, 19, 20

INPUT: Given the entry RRIRKRPPRLPRPRPRPDGYPRP , report its measured shrunken log2 fold change.
OUTPUT: -0.0936

INPUT: What do you get for RRIRWRPPRLPRPRPRPKPEPRP ?
OUTPUT: 0.351

INPUT: Query RRIRPRPPRLPRPRPRPLEVPRP next
OUTPUT: -0.007

INPUT: Input RRIRNRPPRLPRPRPRPWARPRP
OUTPUT: 0.0712

INPUT: Also, RRIRTRPPRLPRPRPRPPCGPRP please.
OUTPUT: 0.4

INPUT: Query RRIRCRPPRLPRPRPRPKQHPRP next
OUTPUT: 0.189

INPUT: Item: RRIRPRPPRLPRPRPRPDYIPRP
OUTPUT: -1.2

INPUT: Please answer likewise for RRIRYRPPRLPRPRPRPGLCPRP
OUTPUT: -0.0365

INPUT: Same for RRIRLRPPRLPRPRPRPTDVPRP
OUTPUT: -0.524

INPUT: Param item: RRIRMRPPRLPRPRPRPYHKPRP
OUTPUT: -0.0503

INPUT: Another sequence to look at: RRIRHRPPRLPRPRPRPNPCPRP
OUTPUT: -0.132

INPUT: Please give the result for RRIRMRPPRLPRPRPRPMNWPRP too.
OUTPUT: -0.117

INPUT: Item: RRIRFRPPRLPRPRPRPDPKPRP
OUTPUT: 0.117

INPUT: Can you check RRIRRRPPRLPRPRPRPGRNPRP next?
OUTPUT: -0.000492

INPUT: And the next one, RRIRVRPPRLPRPRPRPKCKPRP ?
OUTPUT: -0.191

INPUT: Again, but for RRIRDRPPRLPRPRPRPVIVPRP
OUTPUT: 0.0947
